- Tested on: S. aureus Mu3
- Experiment: Secondary screening of compound 13 analogues in combination with gentamicin (growth by OD 595 nm)
- Experimental Parameters: Staphylococcus aureus, MU3, read-out: 20 μM + 200 μg/ml Gentamicin Growth inhibition Percentage
Endpoint Label: inhibition at 20 µM (%)

Molecule: CCOc1cc(/C=C2\SC(=S)N(CC(=O)O)C2=O)ccc1OCc1ccc(Cl)cc1
Test System: S. aureus Mu3
Endpoint Label: inhibition at 20 µM
Assay Result: 91

Molecule: COc1cc(/C=C2\SC(=S)N(CC(=O)O)C2=O)ccc1OCc1ccccc1
Test System: S. aureus Mu3
Endpoint Label: inhibition at 20 µM
Assay Result: 12

Molecule: COc1cc(/C=C2\SC(=S)N(CC(=O)O)C2=O)ccc1OCc1ccc(Cl)cc1
Test System: S. aureus Mu3
Endpoint Label: inhibition at 20 µM
Assay Result: 90

Molecule: CCCOc1ccc(/C=C2\SC(=S)N(CC(=O)O)C2=O)cc1
Test System: S. aureus Mu3
Endpoint Label: inhibition at 20 µM
Assay Result: 36

Molecule: O=C(O)CN1C(=O)/C(=C/c2cccc(OCc3ccc(Cl)cc3Cl)c2)SC1=S
Test System: S. aureus Mu3
Endpoint Label: inhibition at 20 µM
Assay Result: 91

Molecule: COc1ccc(/C=C2\SC(=S)N(CC(=O)O)C2=O)cc1OCc1ccc(Cl)cc1Cl
Test System: S. aureus Mu3
Endpoint Label: inhibition at 20 µM
Assay Result: 24

Molecule: CCOc1cc(/C=C2\SC(=S)N(CC(=O)O)C2=O)ccc1OCc1ccc(Cl)c(Cl)c1
Test System: S. aureus Mu3
Endpoint Label: inhibition at 20 µM
Assay Result: 67

Molecule: COc1cc(/C=C2\SC(=S)N(CC(=O)O)C2=O)ccc1OCc1ccc(Br)cc1
Test System: S. aureus Mu3
Endpoint Label: inhibition at 20 µM
Assay Result: 17

Molecule: COc1cc(/C=C2\SC(=S)N(CC(=O)O)C2=O)ccc1OCc1ccccc1F
Test System: S. aureus Mu3
Endpoint Label: inhibition at 20 µM
Assay Result: 38

Molecule: COc1ccc(/C=C2\SC(=S)N(CC(=O)O)C2=O)cc1OCc1ccc(Cl)cc1
Test System: S. aureus Mu3
Endpoint Label: inhibition at 20 µM
Assay Result: 91

Molecule: CC(C(=O)O)N1C(=O)/C(=C/c2ccc(Cl)cc2)SC1=S (stereo not shown)
Test System: S. aureus Mu3
Endpoint Label: inhibition at 20 µM
Assay Result: 24

Molecule: O=C(O)CN1C(=O)/C(=C/c2ccc(OCc3ccccc3)cc2)SC1=S
Test System: S. aureus Mu3
Endpoint Label: inhibition at 20 µM
Assay Result: 60

Molecule: O=C(O)CN1C(=O)/C(=C/c2cccc(OCc3ccccc3Cl)c2)SC1=S
Test System: S. aureus Mu3
Endpoint Label: inhibition at 20 µM
Assay Result: 91

Molecule: COc1ccc(/C=C2\SC(=S)N(CC(=O)O)C2=O)cc1OCc1ccccc1
Test System: S. aureus Mu3
Endpoint Label: inhibition at 20 µM
Assay Result: 27

Molecule: O=C(O)CN1C(=O)/C(=C/c2cccc(OCc3ccccc3F)c2)SC1=S
Test System: S. aureus Mu3
Endpoint Label: inhibition at 20 µM
Assay Result: 65

Molecule: CCOc1ccc(/C=C2\SC(=S)N(CC(=O)O)C2=O)cc1
Test System: S. aureus Mu3
Endpoint Label: inhibition at 20 µM
Assay Result: 23
